From: patent US12686682B2

// values below are reported pIC50
Target: Phospho EGFR LRCS (BaF3-LRCS cell line) (Homo sapiens, UniProt P00533, C797S/L858R)
Sequence (P00533 25-1210 C797S/L858R): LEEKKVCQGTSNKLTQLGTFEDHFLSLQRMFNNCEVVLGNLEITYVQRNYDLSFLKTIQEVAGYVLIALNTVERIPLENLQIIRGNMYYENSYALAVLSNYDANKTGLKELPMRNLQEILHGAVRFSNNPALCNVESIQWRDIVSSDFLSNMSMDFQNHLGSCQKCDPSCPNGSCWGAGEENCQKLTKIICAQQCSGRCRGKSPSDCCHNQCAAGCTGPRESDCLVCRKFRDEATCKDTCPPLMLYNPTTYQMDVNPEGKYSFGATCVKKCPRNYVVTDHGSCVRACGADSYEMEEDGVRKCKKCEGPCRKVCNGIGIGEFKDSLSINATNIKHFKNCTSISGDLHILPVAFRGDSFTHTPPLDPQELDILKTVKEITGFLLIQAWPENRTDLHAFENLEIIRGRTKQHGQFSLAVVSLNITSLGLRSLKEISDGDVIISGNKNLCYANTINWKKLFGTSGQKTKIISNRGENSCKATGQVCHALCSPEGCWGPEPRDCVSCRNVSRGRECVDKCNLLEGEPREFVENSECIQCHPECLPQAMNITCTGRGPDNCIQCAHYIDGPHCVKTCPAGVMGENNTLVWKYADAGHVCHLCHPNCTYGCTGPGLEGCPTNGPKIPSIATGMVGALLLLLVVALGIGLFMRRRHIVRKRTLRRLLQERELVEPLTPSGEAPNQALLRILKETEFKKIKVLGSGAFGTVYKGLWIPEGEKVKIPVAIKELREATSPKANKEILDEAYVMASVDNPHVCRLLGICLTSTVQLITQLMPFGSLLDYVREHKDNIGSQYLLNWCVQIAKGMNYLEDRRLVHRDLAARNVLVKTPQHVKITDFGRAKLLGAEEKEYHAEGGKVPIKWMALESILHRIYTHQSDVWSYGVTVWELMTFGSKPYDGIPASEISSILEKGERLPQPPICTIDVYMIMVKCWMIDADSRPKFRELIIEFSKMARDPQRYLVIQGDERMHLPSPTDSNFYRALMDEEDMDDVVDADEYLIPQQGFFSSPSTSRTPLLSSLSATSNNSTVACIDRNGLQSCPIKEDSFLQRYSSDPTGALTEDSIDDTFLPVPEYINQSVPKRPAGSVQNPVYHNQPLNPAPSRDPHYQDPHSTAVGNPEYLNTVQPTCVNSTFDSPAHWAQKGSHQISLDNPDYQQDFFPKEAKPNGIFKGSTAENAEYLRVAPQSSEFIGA
Assay: HTRF Phospho EGFR LRCS Assay (Cellular)
Details: BaF3-LRCS cells, 4 hours incubation, HTRF phospho-EGFR readout
Procedure: HTRF Phospho EGFR LRCS Assay (Cellular) BaF3-LRCS cell line were obtained from Crownbio (San Diego, CA, USA). […] Cells are transferred as above to Greiner Bio-One, Nr. […] The lidded plates were then incubated for 4 h at room temperature before reading the fluorescence emission at 616 and 665 nm using an Envision reader (Perkin Elmer). Data was analyzed in similar fashion as above using the normalized ratio of the 665 to 616 signals multiplied by 10000.
pIC50 is a log-scale quantity: -log10 of the concentration expressed in molar.

The compound listed as Cc1c(C#Cc2ccc(CN3CCC(CO)CC3)cc2)cc(C(F)F)c2cn(C(C(=O)Nc3nccs3)c3ncn4c3CCC4(C)C)nc12 (centres unmarked) has a reported pIC50 of 7.96

The compound listed as Cc1c(C#Cc2ccc(CN3CCC(CO)CC3)cc2)cc(C(F)F)c2cn(C(C(=O)Nc3nccs3)c3ncn4c3C[C@@H](F)C4)nc12 (some centres unmarked) has a reported pIC50 of 7.66

The compound listed as Cc1c(C#Cc2ccc(CN3CCC(CO)CC3)cc2)cc(C(F)(F)F)c2cn(C(C(=O)Nc3nccs3)c3ncn4c3CCC43CC3)nc12 (centres unmarked) has a reported pIC50 of 7.96

The compound listed as Cc1c(C#Cc2ccc(CN3CCC(CO)CC3)cc2)cc(C(F)(F)F)c2cn(C(C(=O)Nc3nccs3)c3ncn4c3CCC4)nc12 (centres unmarked) has a reported pIC50 of 8.05

The compound listed as Cc1c(C#Cc2ccc(CN3CCC(CO)CC3)cc2)cc(C(F)(F)F)c2cn(C(C(=O)Nc3nccs3)c3ncn4c3C[C@@H](F)C4)nc12 (some centres unmarked) has a reported pIC50 of 7.82
